B1: ANKRD9 (parent)
chain: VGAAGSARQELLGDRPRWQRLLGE

- Variants of: B1
- ASSAY DETAILS: protein stability index of a GFP-peptide fusion (GPS, HEK-293T) (PSI 1-6); higher = more stable;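 note: lentivirally expressed fusions sorted by FACS into six bins by GFP to DsRed ratio, PSI derived from sequencing read proportions per bin multiplied by bin number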
- MEASUREMENT CONDITIONS: c terminus: a fixed tail appended
Short version: protein stability index at least 3 is Condition met, less is Condition not met.

>  <QUERY SEQUENCE>
VGAAGSARQELLGDRPRWQRLVGE [L22V]

>  <ASSIGNED CATEGORY>
Condition met

$$$$

Check this variant for protein stability index at or above 3: VGAAGSARQELLGDIPRWQRLLGE [R15I]
Condition not met

Check this variant for protein stability index at or above 3: VGAAGSARQHLLGDRPRWQRLLGE [E10H]
Condition not met

Check this variant for protein stability index at or above 3: VGAWGSARQELLGDRPRWQRLLGE [A4W]
Condition not met

Check this variant for protein stability index at or above 3: VGAAGSARQELLGDRPFWQRLLGE [R17F]
Condition not met

Check this variant for protein stability index at or above 3: TGAAGSARQELLGDRPRWQRLLGE [V1T]
Condition met

Check this variant for protein stability index at or above 3: VGVAGSARQELLGDRPRWQRLLGE [A3V]
Condition met

Check this variant for protein stability index at or above 3: VGAAGSARQELLGDRPRWQRQLGE [L21Q]
Condition met

Check this variant for protein stability index at or above 3: VGAALSARQELLGDRPRWQRLLGE [G5L]
Condition not met

Check this variant for protein stability index at or above 3: VGAAHSARQELLGDRPRWQRLLGE [G5H]
Condition not met

Check this variant for protein stability index at or above 3: VGAAGSARQELLGQRPRWQRLLGE [D14Q]
Condition not met

Check this variant for protein stability index at or above 3: VGAAGGARQELLGDRPRWQRLLGE [S6G]
Condition not met
